Measured values drawn from paper PMC7179167 for this set.

# Test system: p53
# EXPERIMENT NOTES: p53 ELISA in HCT-116 cells
# Format: cell-based, human
# CONDITIONS: HCT-116 cells treated at IC50 concentration; control 1.68 ± 0.06; mean ± SD
If the reported p53 (pg/50 mg Protein) equals or exceeds 20 pg/50 mg Protein, assign criterion met. If not, assign criterion not met.

MOLECULE	CLASS NAME
COc1c(C2=NNC3(C2)C(=O)Nc2ccccc23)c(OC)c2ccoc2c1OC (centres unmarked) [Compound 12b]	criterion met
COc1cc2occc2c(OC)c1C1=NNC2(C1)C(=O)Nc1ccccc12 (centres unmarked) [Compound 11b]	criterion not met
COc1c(C2=NNC3(C2)C(=O)Nc2ccccc23)c(O)cc2occc12 (centres unmarked) [Compound 11a]	criterion not met
COc1c(C2=NNC3(C2)C(=O)Nc2ccccc23)c(O)c(OC)c2occc12 (centres unmarked) [Compound 12a]	criterion met
O=C1Nc2ccccc2C12CC(c1cn(Cc3ccccc3)c3ccccc13)=NN2 (centres unmarked) [Compound 13c]	criterion not met

---

# EXPERIMENT NOTES: DPPH free radical scavenging assay
# Assay type: biochemical
# CONDITIONS: 30 min; concentration of 20µg/l; mean ± SD of three experiments; read-out: Scavenging Activity (%) on DPPH radicals at 30 min
TEST READOUT: inhibition (%)

MOLECULE	TEST READOUT	SCALE UNIT	ASSAY VALUE
O=C1Nc2ccccc2C12CC(c1cn(S(=O)(=O)c3ccc(Br)cc3)c3ccccc13)=NN2c1ccccc1 (stereo not shown) [Compound 14g]	inhibition	%	11.9
O=C1O[C@H]([C@@H](O)CO)C(O)=C1O [Ascorbic acid, ascorbic acid, reference compound]	inhibition	%	97.5
O=C1Nc2ccccc2C12CC(c1cn(S(=O)(=O)c3ccc(Br)cc3)c3ccccc13)=NN2 (stereo not shown) [Compound 13g]	inhibition	%	44
CCOc1c(C2=NNC3(C2)C(=O)Nc2ccccc23)c(OC)c2ccoc2c1OC (stereo not shown) [Compound 12c]	inhibition	%	10.2
COc1cc2occc2c(OC)c1C1=NNC2(C1)C(=O)Nc1ccccc12 (stereo not shown) [Compound 11b]	inhibition	%	14.3
O=C1Nc2ccccc2C12CC(c1cn(Cc3ccccc3)c3ccccc13)=NN2 (stereo not shown) [Compound 13c]	inhibition	%	21
COc1c(C2=NNC3(C2)C(=O)Nc2ccccc23)c(O)cc2occc12 (stereo not shown) [Compound 11a]	inhibition	%	10.3

---

Quick list: inhibition per entry.
# EXPERIMENT NOTES: DPPH free radical scavenging assay
# Assay type: biochemical
# CONDITIONS: 15 min; concentration of 20µg/l; mean ± SD of three experiments; read-out: Scavenging Activity (%) on DPPH radicals at 15 min
TEST READOUT: inhibition (%)

COMPOUND	SCALE UNIT	ASSAY VALUE
CCOc1cc2occc2c(OC)c1C1=NNC2(C1)C(=O)Nc1ccccc12 (stereo not shown) [Compound 11c]	%	40.6
O=C1Nc2ccccc2C12CC(c1cn(Cc3ccccc3)c3ccccc13)=NN2 (stereo not shown) [Compound 13c]	%	14
CCOc1c(C2=NNC3(C2)C(=O)Nc2ccccc23)c(OC)c2ccoc2c1OC (stereo not shown) [Compound 12c]	%	9.76
O=C1Nc2ccccc2C12CC(c1cn(S(=O)(=O)c3ccc(Cl)cc3)c3ccccc13)=NN2c1ccccc1 (stereo not shown) [Compound 14h]	%	57.9
